Tested on: AncSZ;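 further: 11-residue human phosphosite peptides and single-mutation variants displayed on the E. coli surface, counted by deep sequencing, each peptide's frequency after selection divided by its frequency in the unselected input library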;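 further: frequency after pTyr selection over input frequency; kinase dosed for 20-30% of maximal phosphorylation in three min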
ASSAY SUMMARY: phosphorylation enrichment, bacterial display (enrichment ratio); higher = better substrate or ligand; peptides without Tyr show the background
Could you label it Yes if measured phosphorylation enrichment is 1 or higher, and No otherwise?

BIOSEQUENCE: HKETGYVVERP [BCLAF1_Y466_L461H]
ASSIGNED CATEGORY: No

BIOSEQUENCE: SLNAVYPRAGR [OAS3_Y376_S381R]
ASSIGNED CATEGORY: No

BIOSEQUENCE: KVALLYKPFFF [POLE_Y100_P99L_YF]
ASSIGNED CATEGORY: Yes

BIOSEQUENCE: EITSHYRHLLR [ZBTB46_Y14]
ASSIGNED CATEGORY: No

BIOSEQUENCE: DSDTDYGSGYP [RNASEH2A_Y206_L202S]
ASSIGNED CATEGORY: Yes

BIOSEQUENCE: VRVQLYDPDYM [CYP4A22_Y100]
ASSIGNED CATEGORY: Yes

BIOSEQUENCE: SASSSYSRSRS [SRRM4_Y549_R547S]
ASSIGNED CATEGORY: No

BIOSEQUENCE: TFVKSYTIHFS [F5_Y2153_M2148T_YF]
ASSIGNED CATEGORY: Yes

BIOSEQUENCE: RELGEYGLQAY [ALDH2_Y497]
ASSIGNED CATEGORY: Yes

BIOSEQUENCE: HESEIYCKVCF [CSRP3_Y57_YF]
ASSIGNED CATEGORY: Yes

BIOSEQUENCE: LTFPDYLPCSV [SAG_Y129]
ASSIGNED CATEGORY: Yes

BIOSEQUENCE: HFPDVYAWEQL [ALX3_Y181_R183W_YF]
ASSIGNED CATEGORY: Yes
